# System: OVCAR-4 ovarian
# Measurement Description: NCI tumour cell line growth inhibition, 48 h
Readout Type: TGI (µM)
# unit: µM | format: bare number

Observe how each entry below is paired with its result.
| Compound | TGI, µM |
| --- | --- |
| Cn1cc(C2=C(c3cn(CCCN)c4ccccc34)C(=O)NC2=O)c2ccccc21 | 12.9 |
| CC(C)COC1Sc2ccccc2S1 | 53.4 |
| COC1C=COC2(C)Oc3c(C)c(O)c4c(O)c(c(C5SCCS5)c(O)c4c3C2=O)NC(=O)/C(C)=C\C=CC(C)C(O)C(C)C(O)C(C)C(OC(C)=O)C1C (centres undefined) | 20.5 |

GET /values?readout=TGI&item= `Cc1c2ccncc2c(C)c2c1[nH]c1ccc(Oc3ccccc3)cc12`
10.5
